Source listed as paper PMC5130146.

assayed.system: AP2 µ2 C-terminal subdomain (C-µ2), residues 160-435 of rat µ2 (rat) (UniProt P84092)
Sequence (P84092 160-435): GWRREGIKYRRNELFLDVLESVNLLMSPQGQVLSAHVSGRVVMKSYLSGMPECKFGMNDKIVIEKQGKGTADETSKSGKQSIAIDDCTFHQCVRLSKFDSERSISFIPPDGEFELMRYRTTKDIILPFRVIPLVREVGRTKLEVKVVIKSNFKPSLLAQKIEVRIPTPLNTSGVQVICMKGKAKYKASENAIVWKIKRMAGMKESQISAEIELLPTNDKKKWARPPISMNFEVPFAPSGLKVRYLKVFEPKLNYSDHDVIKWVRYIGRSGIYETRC
procedure.summary: ITC
recorded.endpoint: Kd
Please format your answer as a value with the unit trailing.

substance | recorded.endpoint | reported.result
integrin α4 peptide (QYKSILQE) | Kd | 72 µM

Input EGFR peptide (FYRLMS) . Output Kd: 20 µM
